Target of assay: UniProt:P17931
Assay text: Competitive binding assay: biotinylated hGal-3 binding to microplate-adsorbed asialofetuin (ASF), spectrophotometric
Stated conditions: Gal-3 inhibition, Table 4; read-out: IC50
Readout type: IC50 (nM)
Number only, in nM; omit the unit.

For orientation, consider the following solved cases.
| Compound | IC50 (nM) |
| --- | --- |
| CN(CCC1CCOCC1)C(=O)C(S[C@@H]1O[C@H](CO)[C@H](O)[C@H](n2cc(-c3cc(F)c(F)c(F)c3)nn2)[C@H]1O)C1(O)CCOCC1 (stereo partly shown) [Example 2.41.216.] | 60 |
| CC1CN(C(=O)[C@H](S[C@@H]2O[C@H](CO)[C@H](O)[C@H](n3cc(-c4cc(F)c(F)c(F)c4)nn3)[C@H]2O)C2(O)CCOCC2)C1 [Example 2.41.205R.] | 1000 |
| CN1CCC(O)(C(S[C@@H]2O[C@H](CO)[C@H](O)[C@H](n3cc(-c4cc(F)c(F)c(F)c4)nn3)[C@H]2O)C(=O)N2CCc3ccccc32)CC1 (stereo partly shown) [Example 2.40.209.] | 120 |

Please examine the following record next.
Prompt line: Output IC50 of CN(CC1CCCC1)C(=O)[C@H](S[C@@H]1O[C@H](CO)[C@H](O)[C@H](n2cc(-c3cc(F)c(F)c(F)c3)nn2)[C@H]1O)C1(O)CCOCC1 [Example 2.41.212.]
Response line: 80

====

Target of assay: biotinylated human Gal-3 (hGal-3) (Homo sapiens, UniProt P17931)
Sequence (P17931 whole entry): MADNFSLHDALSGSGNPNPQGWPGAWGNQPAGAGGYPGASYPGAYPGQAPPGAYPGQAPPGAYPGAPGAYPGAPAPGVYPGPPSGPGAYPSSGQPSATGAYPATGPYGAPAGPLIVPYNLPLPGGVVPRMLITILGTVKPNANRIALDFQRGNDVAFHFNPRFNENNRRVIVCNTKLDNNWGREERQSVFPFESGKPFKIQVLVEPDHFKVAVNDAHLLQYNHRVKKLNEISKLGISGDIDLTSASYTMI
Assay text: Competitive binding assay: biotinylated hGal-3 binding to microplate-adsorbed asialofetuin (ASF), spectrophotometric
Stated conditions: Gal-3 inhibition, Table 4; read-out: IC50
Please assign rule not met whenever IC50 is at or above 80 nM, and rule met whenever it is below.

Please review the following examples before continuing.
| Compound | Target of assay | Label value |
| --- | --- | --- |
| CN(CC1CC1)C(=O)[C@@H](S[C@@H]1O[C@H](CO)[C@H](O)[C@H](n2cc(-c3cc(F)c(F)c(F)c3)nn2)[C@H]1O)C1(O)CCOCC1 [Example 2.41.218S.] | biotinylated human Gal-3 (hGal-3) (Homo sapiens, UniProt P17931) | rule met |
| O=C(C(S[C@@H]1O[C@H](CO)[C@H](O)[C@H](n2cc(-c3cc(F)c(F)c(F)c3)nn2)[C@H]1O)C1(O)CCOCC1)N1CCCCC1 (stereo partly drawn) | biotinylated human Gal-3 (hGal-3) (Homo sapiens, UniProt P17931) | rule not met |
| CN(CC1CC1)C(=O)C(S[C@@H]1O[C@H](CO)[C@H](O)[C@H](n2cc(-c3cc(F)c(F)c(F)c3)nn2)[C@H]1O)C1(O)CCOCC1 (stereo partly drawn) | biotinylated human Gal-3 (hGal-3) (Homo sapiens, UniProt P17931) | rule not met |
| CC1CCN1C(=O)C(S[C@@H]1O[C@H](CO)[C@H](O)[C@H](n2cc(-c3cc(F)c(F)c(F)c3)nn2)[C@H]1O)C1(O)CCOCC1 (stereo partly drawn) | biotinylated human Gal-3 (hGal-3) (Homo sapiens, UniProt P17931) | rule not met |

Consider the additional compound presented here.
Prompt line: Consider the compound O=C([C@@H](S[C@@H]1O[C@H](CO)[C@H](O)[C@H](n2cc(-c3cc(F)c(F)c(F)c3)nn2)[C@H]1O)C1(O)CCOCC1)N1CCCCC1 [Example 2.41.208S.] . Is its IC50 strictly less than 80 nM?
Response line: rule met
